Test system: RPMI-8226
Test: NCI tumour cell line growth inhibition, 48 h
Activity calls are given as the source filed them. Cut-off read from the data, not from the text of the source: active = GI50 up to about 1.1 µM and inactive = higher.
Possible outcomes: active, inactive

[
  {
    "compound": "COC(=O)n1c(=O)n(-c2ccccc2)c(=O)n1C(=O)Nc1ccccc1",
    "targetOrTestSystem": "RPMI-8226",
    "labelClass": "inactive"
  },
  {
    "compound": "Fc1cccc(F)c1C1SCc2nc3cc4ccccc4cc3n21 (configuration not stated)",
    "targetOrTestSystem": "RPMI-8226",
    "labelClass": "inactive"
  },
  {
    "compound": "C#CCSc1nc(-c2ccco2)n[nH]1",
    "targetOrTestSystem": "RPMI-8226",
    "labelClass": "inactive"
  },
  {
    "compound": "CC(=O)O[C@@H]1CO[C@H]2O[C@H]3[C@@H](C(C=O)=C[C@H](O)[C@@H]4C5=C(C(C)C)CC[C@]5(C)CC[C@@]34C)[C@@]2(O)C1=O [STRIATIN E]",
    "targetOrTestSystem": "RPMI-8226",
    "labelClass": "active"
  },
  {
    "compound": "CC1=CC(=O)c2[nH]c3ccccc3c2C1=O [MURRAYAQUINONE A]",
    "targetOrTestSystem": "RPMI-8226",
    "labelClass": "inactive"
  },
  {
    "compound": "O=C(c1ccccc1)n1c2ccc(Br)cc2c2nc3ccccc3nc21",
    "targetOrTestSystem": "RPMI-8226",
    "labelClass": "inactive"
  },
  {
    "compound": "O=C(Nc1cccc2ccccc12)c1cc2ccccc2oc1=O",
    "targetOrTestSystem": "RPMI-8226",
    "labelClass": "inactive"
  },
  {
    "compound": "Cc1ccsc1/C=N/Nc1nc2ccccc2s1",
    "targetOrTestSystem": "RPMI-8226",
    "labelClass": "inactive"
  },
  {
    "compound": "O=C1/C(=C/Cc2ccco2)N=C(c2ccccc2)N1c1nc2c(Cl)cc(Cl)cc2s1",
    "targetOrTestSystem": "RPMI-8226",
    "labelClass": "inactive"
  },
  {
    "compound": "N#Cc1nc(-c2ccccn2)c(-c2ccccn2)nc1C#N",
    "targetOrTestSystem": "RPMI-8226",
    "labelClass": "inactive"
  },
  {
    "compound": "CCOC(=O)C(NC(=O)c1cccc(Cl)c1)(N1CCN(c2cc3c(cc2F)c(=O)c(C(=O)O)cn3CC)CC1)C(F)(F)F (configuration not stated)",
    "targetOrTestSystem": "RPMI-8226",
    "labelClass": "inactive"
  },
  {
    "compound": "c1ccc2c(c1)SP1Sc3ccccc3P21 (configuration not stated)",
    "targetOrTestSystem": "RPMI-8226",
    "labelClass": "inactive"
  },
  {
    "compound": "COC(=O)/C(=N\\NC(=O)C[N+](C)(C)C)C(C(=O)OC)C(=O)C(=O)Nc1ccccc1C(N)=O (configuration not stated)",
    "targetOrTestSystem": "RPMI-8226",
    "labelClass": "inactive"
  },
  {
    "compound": "O=C1CCC(c2ccccc2)C(O)(C(=O)O)C1 (configuration not stated)",
    "targetOrTestSystem": "RPMI-8226",
    "labelClass": "inactive"
  },
  {
    "compound": "O=C1CC(CC(=O)C2CCCCC2=O)C(=O)N1 (configuration not stated)",
    "targetOrTestSystem": "RPMI-8226",
    "labelClass": "inactive"
  },
  {
    "compound": "CN(C)C(=O)OCOC(=O)N(C)C",
    "targetOrTestSystem": "RPMI-8226",
    "labelClass": "inactive"
  },
  {
    "compound": "c1cncc(CNCCN2CCNCC2)c1",
    "targetOrTestSystem": "RPMI-8226",
    "labelClass": "inactive"
  },
  {
    "compound": "O=C(O)c1ccccc1NC(=O)C1CCCCC1",
    "targetOrTestSystem": "RPMI-8226",
    "labelClass": "inactive"
  },
  {
    "compound": "c1cc2nnc1SCCSCCCSCCS2",
    "targetOrTestSystem": "RPMI-8226",
    "labelClass": "inactive"
  },
  {
    "compound": "C=CCOC(=O)N1c2ccc(O)cc2[C@@]23O[C@@]24[C@@H]1C#C/C=C\\C#C[C@]3(O)C(OC)(OC)C[C@@H]4C",
    "targetOrTestSystem": "RPMI-8226",
    "labelClass": "inactive"
  },
  {
    "compound": "CC1(C)C=N[N+]2(C)C3C=CC(CC3)C12 (configuration not stated)",
    "targetOrTestSystem": "RPMI-8226",
    "labelClass": "inactive"
  },
  {
    "compound": "CSc1snc2sc3c(Cl)nnnc3c12",
    "targetOrTestSystem": "RPMI-8226",
    "labelClass": "inactive"
  }
]
